The compounds listed here are annotated with their IC50.
target: CYP2C9 (Homo sapiens, UniProt P11712); construct: 0.1 mg/mL protein human liver microsomes (BD Gentest); tissue BD Gentest; host or cells: human liver microsomes; experiment: Cocktail assay for CYPs in human liver microsomes: CYP2C9 (diclofenac 4′-hydroxylation); format: biochemical; details: human liver microsomes 0.1 mg/mL, 5 μM diclofenac, 10 min at 37° C., 6 concentrations up to 10 μM; read-out: IC50 (nM) CYP2C9
Sequence (P11712 whole entry): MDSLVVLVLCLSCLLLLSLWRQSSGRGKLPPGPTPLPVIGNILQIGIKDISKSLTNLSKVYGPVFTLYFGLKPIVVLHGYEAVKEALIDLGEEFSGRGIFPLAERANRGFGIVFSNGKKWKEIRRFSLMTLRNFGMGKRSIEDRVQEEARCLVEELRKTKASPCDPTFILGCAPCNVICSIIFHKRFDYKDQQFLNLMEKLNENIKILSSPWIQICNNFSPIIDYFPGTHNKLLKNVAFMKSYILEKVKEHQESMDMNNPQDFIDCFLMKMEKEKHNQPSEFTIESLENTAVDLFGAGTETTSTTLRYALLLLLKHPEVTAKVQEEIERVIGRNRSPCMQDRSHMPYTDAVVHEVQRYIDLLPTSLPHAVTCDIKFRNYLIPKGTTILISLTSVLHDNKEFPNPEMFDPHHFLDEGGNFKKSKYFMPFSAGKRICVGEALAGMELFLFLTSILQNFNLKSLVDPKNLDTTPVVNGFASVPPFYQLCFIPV
quantityMeasured: IC50 (nM)

compound=C[C@H](c1ccc(F)cc1)n1cncc1CN1CCN(Cc2ccccc2)C(=O)C1 quantitymeasured=IC50 unitinfo=nM readoutqualifier=> reported=10000
compound="Cc1cc(C(=O)N2CCN(Cc3cncn3[C@H](C)c3ccc(F)cc3)CC2c2ccccc2)no1 (some centres unmarked)" quantitymeasured=IC50 unitinfo=nM readoutqualifier== reported=1810
compound="CC(=O)N1CCN(Cc2cncn2C(C)c2ccccc2-c2ccc(F)cc2)CC1 (centres unmarked)" quantitymeasured=IC50 unitinfo=nM readoutqualifier=> reported=10000
compound=Fc1ccc(CCn2cncc2CN2CCN(c3nc4ccccc4o3)CC2)cc1 quantitymeasured=IC50 unitinfo=nM readoutqualifier== reported=4360
compound=C[C@H](c1ccc(C#N)cc1)n1cncc1CN1CCC(c2nc3ccccc3s2)CC1 quantitymeasured=IC50 unitinfo=nM readoutqualifier== reported=1760
compound="C[C@H](c1ccc(C#N)cc1)n1cncc1CN1CCN(c2ccccc2)C(C(=O)N2CCC(F)(F)CC2)C1 (some centres unmarked)" quantitymeasured=IC50 unitinfo=nM readoutqualifier== reported=9270
compound="CC(C1CCOCC1)n1cncc1CN1CCN(c2nc3ccc(F)c(F)c3o2)CC1 (centres unmarked)" quantitymeasured=IC50 unitinfo=nM readoutqualifier=> reported=10000
compound=N#Cc1ccc(C2(n3cncc3CN3CCN(c4nc5ccccc5o4)CC3)CC2)cc1 quantitymeasured=IC50 unitinfo=nM readoutqualifier== reported=9590
compound=C[C@H](c1ccc(C#N)cc1)n1cncc1CN1CCN(c2nc3ccccc3[nH]2)CC1 quantitymeasured=IC50 unitinfo=nM readoutqualifier=> reported=10000
compound=CCC1(C#N)CCN(Cc2cncn2[C@H](C)c2ccc(F)cc2)CC1 quantitymeasured=IC50 unitinfo=nM readoutqualifier== reported=7370
compound="COCCN1CCN(Cc2cncn2C(C)c2ccccc2-c2ccc(F)cc2)CC1 (centres unmarked)" quantitymeasured=IC50 unitinfo=nM readoutqualifier=> reported=10000
compound="C[C@H](c1ccc(C#N)cc1)n1cncc1CN1CCN(c2ccccc2)C(C(=O)N2CCOCC2)C1 (some centres unmarked)" quantitymeasured=IC50 unitinfo=nM readoutqualifier=> reported=10000
compound="CC(c1ccccc1-c1ccc(F)cc1)n1cncc1CN1CCC(F)(F)C1 (centres unmarked)" quantitymeasured=IC50 unitinfo=nM readoutqualifier== reported=7470
compound=Cc1noc(C2(C)CCN(Cc3cncn3[C@H](C)c3ccc(F)cc3)CC2)n1 quantitymeasured=IC50 unitinfo=nM readoutqualifier== reported=2330
compound="CC(C)C(C)n1cncc1CN1CCN(c2nc3ccccc3o2)CC1 (centres unmarked)" quantitymeasured=IC50 unitinfo=nM readoutqualifier=> reported=10000
compound=CC(C)CC1(C#N)CCN(Cc2cncn2[C@H](C)c2ccc(F)cc2)CC1 quantitymeasured=IC50 unitinfo=nM readoutqualifier== reported=2530
compound=C[C@H](c1ccc(F)cc1)n1cncc1CN1CCC(C#N)(C2CCCC2)CC1 quantitymeasured=IC50 unitinfo=nM readoutqualifier== reported=3250
